B1: TPR t1 (parent)
chain: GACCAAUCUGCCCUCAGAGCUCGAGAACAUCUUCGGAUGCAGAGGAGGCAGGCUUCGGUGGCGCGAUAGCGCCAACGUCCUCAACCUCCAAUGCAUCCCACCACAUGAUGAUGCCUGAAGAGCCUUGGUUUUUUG

variants of: B1; experiment: polymerase ribozyme fitness, log enrichment relative to wild type (log ratio); higher = more active; in vitro selection for triplet polymerase activity
measure-name: polymerase ribozyme fitness (log ratio)

Sample GACCCAUCUGCCCUCAGAGCUCGAGAACAUCUUCGGAUGCAGAGGAGGCAGGCUUCGGUGGCGCGAUAGCGCCAACGUCCUCAACCUCCAAUGCAUCCCACCACAUAAUGAUGCCUGAAGAGCCUUGGUUUUUUG [A5C G107A] ; polymerase ribozyme fitness (log ratio) observed: -5.67

Sample GACCAAUCUGCCCUCAGAGCUCGAGCACAUCUUCGGAUGCAGAGGAGGCAGGCUUCGGUGGCGCGAUAGCGCCAACGUCCUCAACCUCCAAUGCAUCCCACCACAUGAUGAUGCCUGAAGAGCCUUGGUUUUUUG [A26C] ; polymerase ribozyme fitness (log ratio) observed: -6.07

Sample GACCAAUCUGCCCUCAGAGCUCGAGUACAUCUUCGGAUGCAGAGGAGGCAGGCUUCGGUGGCGCGAUAGCGGCAACGUCCUCAACCUCCAAUGCAUCCCACCACAUGAUGAUGCCUGAAAAGCCUUGGUUUUUUG [A26U C72G G120A] ; polymerase ribozyme fitness (log ratio) observed: -2.51

Sample GACCAAUCCGCCCUCAGAGCUCGAGAACAUCUUCGGAUGCAGAGGACGCAGGCUUCGGUGGCGCGAUAGCGCCAACGUCCUCAACCUCCAAUGCAUCCCACCACAUGAUGAUGCCUGAAGAGCCUUGGUUUCUUG [U9C G47C U132C] ; polymerase ribozyme fitness (log ratio) observed: -1.22

Sample GACCAAUCUGCCCUCAGAGCUCGAGAACAUCUUCGGAUGCAGAGGAGGCAGGCUUGGGUGGCGCGAUAGCGCCAACGUCCUCAACCUCCAAUGCAUCCCACCACAUAAUGAUGCCUGAAGAGCCUUGGUUUUUUG [C56G G107A] ; polymerase ribozyme fitness (log ratio) observed: -5.95

Sample GACCAAUCUGCCCUCAGAGCUCGAGAACAUCUUCGGAUGCAGAGGAGGCAGGCUUCGGUGGCGCGAUAGCGCCAACGUCCUCAACCUCCAAUGCAUCCCACCACAUGAUGAUGCCUGAAAAGCCUAGGUUGUUUG [G120A U126A U131G] ; polymerase ribozyme fitness (log ratio) observed: 0.608

Sample GACCAAUCUGCCCUCAGAGCACGAGAACAUCUUCGGAUGCAGCGGAGGCAGGCUUCGGUGGCGCGAUAGCGCCAACGUCCUCAACCUCCAAUGCAUCCCACCACAUGAUGAUGCCUGAAGAGCCUUGGUUUUUUG [U21A A43C] ; polymerase ribozyme fitness (log ratio) observed: -2.9

Sample GACCAAUCUGCCCUCAGAGCUCGAGAAAAUCUUCGGAUGCUGAGGAGGCAGGGUUCGGUGGCGCGAUAGCGCCAACGUCCUCAACCUCCAAUGCAUCCCACCAGAUGAUAAUGCCUGAAGAGCCUUGGUUUUUUG [C28A A41U C53G C104G G110A] ; polymerase ribozyme fitness (log ratio) observed: -6.89

Sample GACCAAUCUGCCCUCAGAGCUCGAGAACAUCUUCGGAUGCAGAGGAGGCAGGCUUCGGUGUCGCGAUAGCGCCAACGUCCUCAACCUCCAAUGCAUCCCACCACAUGAUGAUGGCUGAAGAGCCUUGGUUUUUUG [G61U C114G] ; polymerase ribozyme fitness (log ratio) observed: -1.85

Sample GACCAAUCUGCUCUCAUAGCUCGAGAACAUCUUCGGAUGCAGAGGAGGCAGGCUUCGGUGGCGCGAUAGCGCCAACGUCCUCAACCUCCAAUGCAUCCCACCACAUGAUGAUGCCUGAAGAGCCUUGGUUUUUUG [C12U G17U] ; polymerase ribozyme fitness (log ratio) observed: -0.854

Sample GACCAAUCUGCCCUCAGAGCUUGAGAACAUCUUCGGUUGCAGAGGAGGCAGGCUUCGGUGGCGCGAUAGCGCCAACGUCCUCAACCUCCAAUGCAUCCCCCCACAUGAUGAUGCCUGAAGAGCCUUGGUUUUUUG [C22U A37U A100C] ; polymerase ribozyme fitness (log ratio) observed: -5.02

Sample GACCAAUCUGCCCUCAGAGCUCGAGAACAUCUUCGGAUGCAGAGGAGGCAGACUUCGGUCACGCGAUAGCGCCAACGUCCUCAACCUCCAAUGCAUCCCACCACAUGAUGAUGCCUGAAGAGCCUUGGUUUUUUG [G52A G60C G61A] ; polymerase ribozyme fitness (log ratio) observed: -4.56

Sample GACCAAUCUGCCGUCAGAGCUCGAGAACAUCUUCGGAUGCAGAGGAGGCAGGCUUCGGUGGCGCGAUAGCGCUAACGUCCUCAACCUCCACUGCAUCCCACCACAUGAUGAUGCCUGAAGAGCCUUGGUUUUUUG [C13G C73U A91C] ; polymerase ribozyme fitness (log ratio) observed: -2.89

Sample GACCAAUCUGCCCUCAGAGCUCGAGAACAUCUUCGGAUGCAGAGGAGGCAGGCUUCGGUGGUGCGAUAGCUCCAACGUCCUCAACCUCCAAUGCAUCCCACCACAUGAUGAUGCCUGAAUAGCCUUGGUUUUUUG [C62U G71U G120U] ; polymerase ribozyme fitness (log ratio) observed: 0.0266

Sample GACCAAUCUGCCCUCAGAGCUCGAGAACAUCUUCGGGUGCAGAGGAGGCAGGCUUCGGUGGCGUGAUAGCGCCAACGUCCUCAACCUCCAAUGCAUCCCACCACAUGAUGAUGCCUGAAGAGCCUUGGUUUUUUG [A37G C64U] ; polymerase ribozyme fitness (log ratio) observed: -0.479

Sample GACCAAUCUGCCCUCAGAGCUCGAGAACAUCUUCGGAUGCAGAGGAGGCAGGCUUCGGUGGCGCGAUAGCGUCAACGUCCUCAACCUCCAAUGCAUCCCACCACUUGAUGAUGCCUGAAGAGCCUUGGUUUUUUG [C72U A105U] ; polymerase ribozyme fitness (log ratio) observed: -2.43

Sample GACCAAUCUGCCGUCAGAGCUCGAGAACAUCUUCGUAUGCAGAGGAGGCAGGCUUCGGUGGCGCGAUAGCGCCAGCAUCCUCAACCUCCAAUGCAUCCCACCACAUGAUGAUGCCUGAAGAGUCUUGGUUUUUUG [C13G G36U A75G G77A C123U] ; polymerase ribozyme fitness (log ratio) observed: -0.649

Sample GACCAAUCUGCCCUCAGAGCUCGAGAACAUCCUCGGAUGCAGAGGAGGCAGGCUUCGGUGGCGCGAUAGCGCCAACGUCCUCAACCUCCAAUGCAUCCCACCACAUGAUGAUUCCUGAAGAGCCUUGGUUUUUUG [U32C G113U] ; polymerase ribozyme fitness (log ratio) observed: -2.9

Sample GACCAAUCUGGCCUCAGAGCUCGAGAACAUCUUCGGAUGCAGAGGAGGCAGGCUUCGGUGGCGCGAUAGCGCCAAUGUCCUCAACCUCCAAUGCAUCCCACCACAUGAUGAUGCCUGAAAAGCCUUGGUUUUUUG [C11G C76U G120A] ; polymerase ribozyme fitness (log ratio) observed: 2.23

Sample GACCAAUCUGCCCUCAGAGCUCGAGAACAUAUUCGGAUGCAGAUGAGGCAGGCUUCGGUGGCGCGAUAGCGCCAACGUCCUCAACCUCCAAUGCAUCCCAUCACAUGAUGAUGCCUGAAGAGCGUUGGUUUUUUG [C31A G44U C101U C124G] ; polymerase ribozyme fitness (log ratio) observed: -5.62

Sample GACCAAUCUGCCCUCAGAGCUGGAGAACAUCUUCGGAUGCAGAGGAGGCAGGCUUCGGUGGCGCGAUAGCGCCAACGUCCUCAACCUCCAAUGUAUCCCAGCACAUGAUGAUGCCUGAAGAGCCUUGGUUUUUUG [C22G C94U C101G] ; polymerase ribozyme fitness (log ratio) observed: -5.92

Sample GACCAAUCUGCCCUCAGAGCUCGAGAACAGCUUCGGAUGCAGAGGAGGGAGGCUUCGGUGGCGCGAUAGCGCCAACGUCGUCAACCUCCAAUGCAUCCCACCACAUGAUGAUGCCUCAAGAGCCUUGGUUUUUUG [U30G C49G C80G G117C] ; polymerase ribozyme fitness (log ratio) observed: -7.34
